List of log10 IC50 values.
ASSAY_TARGET: recombinant DYRK1A kinase (Homo sapiens (Human), UniProt Q13627)
MEASUREMENT_NOTES: DYRK1A kinase assay (Ser/Thr 18 peptide Z-lyte FRET)
Type: biochemical
EXPERIMENTAL_CONDITIONS: DYRK1A kinase activity, Z-lyte Ser/Thr 18 peptide, 15 μM ATP; method text calls the value IC50; read-out: EC50 (the source's name)
Heads up, the numbers here are log10 of IC50 in nM units.

COc1nc(N[C@H]2CC[C@](C)(O)CC2)nn2ccc(-c3ccc4nnn(CC(F)(F)F)c4c3)c12 [Compound 911] = 0.32
COc1nc(N[C@H]2CCN(C3COC3)C[C@H]2F)nn2ccc(-c3cc(F)c4nnn(CC(F)F)c4c3)c12 [Compound 818] = -0.10
COc1nc(N[C@H]2C[C@](C)(C(=O)N(C)C)C2)nn2ccc(-c3ccc4nnn(C)c4c3)c12 [Compound 212] = 0.15
COc1nc(NC2CC3(CCN(C(C)=O)CC3)C2)nn2ccc(-c3ccn4nccc4c3)c12 [Compound 39] = 0.46
COc1nc(N[C@@H]2CCN(C3COC3)C[C@H]2F)nn2ccc(-c3cc(F)c4nc(C)n(CC(F)F)c4c3)c12 [Compound 159] = 0.46

Now examine the next entry.
What measured log10 IC50 is associated with COc1nc(N[C@H]2CCN(C3COC3)C[C@H]2F)nn2ccc(-c3cc(F)c4nc(C)n(C(C)C)c4c3)c12 [Compound 1142] on recombinant DYRK1A kinase (Homo sapiens (Human), UniProt Q13627)?
0.36

* * *

ASSAY_TARGET: recombinant DYRK1A kinase (Homo sapiens (Human))
MEASUREMENT_NOTES: DYRK1A kinase assay (Ser/Thr 18 peptide Z-lyte FRET)
EXPERIMENTAL_CONDITIONS: DYRK1A kinase activity, Z-lyte Ser/Thr 18 peptide, 15 μM ATP; method text calls the value IC50; read-out: EC50 (the source's name)
READOUT: IC50 (nM)
Dear colleague, please return just the value in nM, with no unit written.

COc1nc(N[C@H]2C[C@@](C)(NC(C)=O)C2)nn2ccc(-c3ccn4nccc4c3)c12 = 1.1

Look at this compound and give its reported IC50. COc1nc(NC23CC(NC(C)=O)(C2)C3)nn2ccc(-c3ccc4nccnc4c3)c12
1.8

What value of IC50 has been recorded for this entry: COc1nc(N[C@H]2C[C@](C)(NC(C)=O)C2)nn2cc(F)c(-c3ccc4ncnn4c3)c12
2.2

Requested read-out: IC50. Entry: COc1nc(NCC2(C)COC2)nn2ccc(-c3ccc4nnn(CC(F)F)c4c3)c12
2

Dear colleague, I am looking for the recorded IC50 of the following compound: COc1nc(N[C@H]2C[C@@](C)(O)C2)nn2ccc(-c3ccc4nnn(C)c4c3)c12
5.7

Dear colleague, I am looking for the recorded IC50 of the following compound: COc1nc(N[C@H]2CC[C@](C)(O)CC2)nn2ccc(-c3ccn4ncnc4c3)c12
7.7

Form field: reported IC50 of COc1nc(NC2CCC3(CC2)CN(C(C)=O)C3)nn2ccc(-c3ccc4nnn(CC(F)F)c4c3)c12
1.7

* * *

ASSAY_TARGET: recombinant DYRK1A kinase (Homo sapiens (Human), UniProt Q13627)
MEASUREMENT_NOTES: DYRK1A kinase assay (Ser/Thr 18 peptide Z-lyte FRET)
EXPERIMENTAL_CONDITIONS: DYRK1A kinase activity, Z-lyte Ser/Thr 18 peptide, 15 μM ATP; method text calls the value IC50; read-out: EC50 (the source's name)
# pIC50 listing for each entry below
Friendly reminder that pIC50 comes from taking -log10 of the concentration in mol/L.

Use these answered entries as a reference point.
COc1nc(N[C@H]2C[C@@](C)(O)C2)nn2ccc(-c3cc4ccncc4[nH]3)c12 [Compound 283] = 6.96
COc1nc(N[C@H](C)C2CCOCC2)nn2ccc(-c3cnc4nccn4c3)c12 [Compound 1147] = 8.57
COc1nc(N[C@H]2C[C@@](C)(NC(C)=O)C2)nn2ccc(-c3ccc4nnn(CC(F)(F)F)c4c3)c12 [Compound 905] = 9.40
COc1nc(N[C@@H]2CCN(C(=O)C3(C#N)CC3)CC2(F)F)nn2ccc(-c3ccc4nnn(CC(F)F)c4c3)c12 [Compound 791] = 8.66
COc1nc(N[C@H]2C[C@@](C)(NC(=O)C3(C#N)CC3)C2)nn2ccc(-c3ccc4ncnn4c3)c12 [Compound 562] = 8.96

Data request, read-out pIC50, for COc1nc(N[C@H]2CC[C@](C)(O)CC2)nn2ccc(-c3ccc4nccnc4c3)c12 [Compound 347]
8.77

Item COc1nc(N[C@H]2CC[C@](C)(O)CC2)nn2ccc(-c3ccc4ncc(C(N)=O)n4c3)c12 [Compound 104] has what recorded pIC50?
8.92

Given COc1nc(N[C@H]2C[C@](C)(C(=O)NC3(C)COC3)C2)nn2ccc(-c3ccc4ncccc4c3)c12 [Compound 1042] , state its recorded pIC50.
8.92

pIC50 lookup needed for COc1nc(N[C@H]2CCN(C(C)=O)C[C@H]2F)nn2cc(F)c(-c3ccc4ncccc4c3)c12 [Compound 1061] , thanks.
9.05

Give its pIC50 value. Item: COc1nc(N[C@H]2CC[C@](C)(O)CC2)nn2ccc(-c3cc(F)c4nc(C)n(CC(F)F)c4c3)c12 [Compound 151]
8.77

* * *

Below is a list of entries, each paired with its recorded pIC50 value.
ASSAY_TARGET: recombinant DYRK1A kinase (Homo sapiens (Human), UniProt Q13627)
MEASUREMENT_NOTES: DYRK1A kinase assay (Ser/Thr 18 peptide Z-lyte FRET)
EXPERIMENTAL_CONDITIONS: DYRK1A kinase activity, Z-lyte Ser/Thr 18 peptide, 15 μM ATP; method text calls the value IC50; read-out: EC50 (the source's name)
Description: Representative compounds were screened using the assay procedure for DYRK1A kinase activity as described below. Each compound was dissolved in DMSO as a 10 mM stock and used to prepare compound source plates. […] The Emission ratio (Em) was calculated as a ratio of the coumarin (C) emission signal (at 445 nm)/Fluorescein (F) emission signal (at 520 nm). The percent phosphorylation was then calculated using the following formula: [1−((Em ratio X F100%)-C100%)/((C0%-C100%) +(Em ratio X (F100%−F0%)))]. […]
Notebook: values listed as pIC50 are -log10 of the concentration (mol/L).

Solved cases below.
CNC(=O)c1cnc2ccc(-c3ccn4nc(N[C@H]5CC[C@](C)(OC)CC5)nc(OC)c34)cn12 [Compound 445] = 8.68
COc1nc(N[C@@H]2[C@@H]3COC[C@@H]32)nn2ccc(-c3ccn4nccc4c3)c12 [Compound 80] = 7.25
COc1nc(N[C@H]2CC[C@@H](OC(F)F)CC2)nn2ccc(-c3cnc4nccn4c3)c12 [Compound 250] = 9.22
COc1nc(N[C@H]2C[C@](C)(C(=O)N(C)C)C2)nn2ccc(-c3ccc4nc(C)n(CC(F)F)c4c3)c12 [Compound 109] = 9.00
CNC(=O)[C@]1(C)C[C@@H](Nc2nc(OC)c3c(-c4ccc5ncccc5c4)ccn3n2)C1 [Compound 1038] = 9.30
COc1nc(NC2CCN(C(C)=O)CC2)nn2ccc(-c3ccn4nccc4c3)c12 [Compound 27] = 5.00

Now take the following molecule into account.
I would be grateful if you could share the reported pIC50 for COc1nc(NC2CCOC(C)(C)C2)nn2ccc(-c3cnc4nccn4c3)c12 (stereo not drawn) [Compound 1148] .
9.22

* * *

Reported values of log10(IC50) for individual entries
ASSAY_TARGET: recombinant DYRK1A kinase (Homo sapiens (Human))
MEASUREMENT_NOTES: DYRK1A kinase assay (Ser/Thr 18 peptide Z-lyte FRET)
EXPERIMENTAL_CONDITIONS: DYRK1A kinase activity, Z-lyte Ser/Thr 18 peptide, 15 μM ATP; method text calls the value IC50; read-out: EC50 (the source's name)
Base-10 log of IC50, unit nM.

CNC(=O)c1cnn2ccc(-c3ccn4nc(N[C@H]5CC[C@](C)(O)CC5)nc(OC)c34)cc12 [Compound 401] = 0.43

Given the entry COc1nc(N[C@H]2CN(C3COC3)C[C@H]2F)nn2ccc(-c3ccc4nc(C)n(CC(F)F)c4c3)c12 [Compound 505] , report its measured log10(IC50).
0.58

Give its log10(IC50) value. Item: COc1nc(N[C@H]2CCNC[C@H]2F)nn2ccc(-c3ccn4nccc4c3)c12 [Compound 30]
1.34

Can you share its log10(IC50)? I mean this molecule: COc1nc(N[C@H]2CC[C@@](C)(O)CC2)nn2ccc(-c3cnc4nccn4c3)c12 [Compound 4]
0.04

Fill in: log10(IC50) of CNC(=O)[C@]1(C)C[C@@H](Nc2nc(OC)c3c(-c4ccc5nccnc5c4)ccn3n2)C1 [Compound 338] is ___
0.08

I'd like to know its log10(IC50). The molecule in question is COc1nc(N[C@@H]2CN(C)C[C@@H]2F)nn2ccc(-c3cnc4nccn4c3)c12 [Compound 262]
0.51

Sample COc1nc(N[C@H]2CN(C)C[C@H]2F)nn2ccc(-c3ccc4nccnc4c3)c12 [Compound 351] — what was its log10(IC50)?
0.91

Return reported log10(IC50); argument: COc1nc(N[C@H]2C[C@@](C)(NC(C)=O)C2)nn2ccc(-c3cnc4nccn4c3)c12 [Compound 934]
0.20
